Below, each entry is listed alongside its reported Kd.
ASSAYED TARGET: human CA-IX (Homo sapiens)
Construct: purchased Acro CA9-H82E3
PROTOCOL NOTES: Surface Plasmon Resonance (SPR) binding kinetics to recombinant human CA-IX (Biacore 8K, single-cycle kinetics, 1:1 binding model)
TEST SETTINGS: Chelated Metal: Lu-175; SPR, 25° C., pH 7.4; read-out: CAIX KD

>  <STRUCTURE SMILES STRING>
NS(=O)(=O)c1nnc(NC(=O)C23CC(c4cn(CCNC(=O)[C@H]5CN(C(=O)CN6CCN(CC(=O)O)CCN(CC(=O)O)CCN(CC(=O)O)CC6)CCN5C(=O)CC[C@H](NC(=O)c5n[nH]c6ccccc56)C(=O)O)nn4)(C2)C3)s1.[Lu+3]

>  <Kd>
< 1 nM

$$$$
>  <STRUCTURE SMILES STRING>
CC(CCCC(=O)N1CCOC[C@H]1C(=O)N[C@@H](CC(=O)NC1(C(=O)NCCn2cc(C34CC(C(=O)Nc5nnc(S(N)(=O)=O)s5)(C3)C4)nn2)CCN(C(=O)CN2CCN(CC(=O)O)CCN(CC(=O)O)CCN(CC(=O)O)CC2)CC1)C(=O)O)(c1ccc(O)cc1)c1ccc(O)cc1.[Lu+3]

>  <Kd>
< 1 nM

$$$$
